Hi there, I'd appreciate the recorded EC50 for every entry that follows.
- system: rNPFF1 (Rattus norvegicus, UniProt Q9EP86)
- Sequence (Q9EP86 whole entry): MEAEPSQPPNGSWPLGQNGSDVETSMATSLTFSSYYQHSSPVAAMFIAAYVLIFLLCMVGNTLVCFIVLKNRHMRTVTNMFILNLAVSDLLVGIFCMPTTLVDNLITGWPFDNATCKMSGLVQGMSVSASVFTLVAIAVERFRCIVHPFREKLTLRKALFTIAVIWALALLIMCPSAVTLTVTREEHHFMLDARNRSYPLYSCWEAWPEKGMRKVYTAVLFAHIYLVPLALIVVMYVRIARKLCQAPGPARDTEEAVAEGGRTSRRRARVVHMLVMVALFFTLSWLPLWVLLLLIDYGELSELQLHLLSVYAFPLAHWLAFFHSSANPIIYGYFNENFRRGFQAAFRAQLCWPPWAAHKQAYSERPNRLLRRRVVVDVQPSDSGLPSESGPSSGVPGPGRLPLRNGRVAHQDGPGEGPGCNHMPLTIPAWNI
- run_description: Functional assay (agonist potency, intrinsic activity) at cloned rat NPFF1 receptor
- experimental_parameters: recombinant rat NPFF1

// solved cases for EC50 follow
[
  {
    "compound": "Cc1nc(NC(=N)N)nc2ccc(-c3ccccc3)cc12 [Compound 1010]",
    "value_observed": "> 10 µM"
  },
  {
    "compound": "Cc1nc(NC(=N)N)nc2ccc(OCc3ccccc3)cc12 [Compound 1028]",
    "value_observed": "> 10 µM"
  },
  {
    "compound": "Cc1nc(NC(=N)N)nc2cc(OCc3ccccc3)ccc12 [Compound 1006]",
    "value_observed": "> 10 µM"
  },
  {
    "compound": "CCCCCc1ccc2nc(NC(=N)N)cc(C)c2c1 [Compound 5002]",
    "value_observed": "0.157 µM"
  },
  {
    "compound": "Cc1nc(NC(=N)N)nc2cc3c(cc12)CCC3 [Compound 1038]",
    "value_observed": "> 10 µM"
  }
]

Which EC50 is listed for COc1ccc2nc(NC(=N)N)nc(C)c2c1 [Compound 1011] ?
> 10 µM

###

- system: hNPFF2 (Homo sapiens, UniProt Q9Y5X5)
- Construct: expressed in transfected cells
- Sequence (Q9Y5X5 103-522): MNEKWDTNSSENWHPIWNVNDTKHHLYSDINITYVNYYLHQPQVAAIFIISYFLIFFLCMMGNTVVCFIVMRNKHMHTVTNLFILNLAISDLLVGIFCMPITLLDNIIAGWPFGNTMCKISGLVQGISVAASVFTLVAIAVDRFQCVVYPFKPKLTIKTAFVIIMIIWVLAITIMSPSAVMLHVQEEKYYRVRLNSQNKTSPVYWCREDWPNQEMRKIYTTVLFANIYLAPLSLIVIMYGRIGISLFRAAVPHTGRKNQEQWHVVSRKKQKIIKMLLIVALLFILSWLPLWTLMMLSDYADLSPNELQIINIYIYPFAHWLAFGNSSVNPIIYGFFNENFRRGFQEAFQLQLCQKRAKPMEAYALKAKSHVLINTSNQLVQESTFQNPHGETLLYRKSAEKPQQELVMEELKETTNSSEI
- run_description: Functional assay (agonist potency, intrinsic activity) at cloned human NPFF2 receptor
- Type: cell-based
- experimental_parameters: percent of maximum response elicited by neuropeptide FF; human NPFF2
observable: hNPFF2 IA (intrinsic activity)

[
  {
    "mol_smiles": "Cc1cc(NC(=N)N)nc2ccccc12",
    "value_observed": "Inactive"
  },
  {
    "mol_smiles": "Cc1ccc2c(C)nc(NC(=N)N)nc2c1",
    "value_observed": "Inactive"
  },
  {
    "mol_smiles": "Cc1ccc2c(C)cc(NC(=N)N)nc2c1",
    "value_observed": "Inactive"
  }
]

###

- system: rNPFF1 (Rattus norvegicus, UniProt Q9EP86)
- Construct: expressed in transfected cells
- run_description: Functional assay (agonist potency, intrinsic activity) at cloned rat NPFF1 receptor
- Format: cell-based
- experimental_parameters: percent of maximum response elicited by neuropeptide FF; rat NPFF1
observable: rNPFF1 IA (intrinsic activity)

// solved cases for rNPFF1 IA (intrinsic activity) follow
[
  {
    "compound": "Cc1nc(NC(=N)N)nc2ccc3ccccc3c12 [Compound 1007]",
    "rNPFF1 IA (intrinsic activity)": "Inactive"
  },
  {
    "compound": "CCCCCc1ccc2nc(NC(=N)N)nc(C)c2c1 [Compound 2001]",
    "rNPFF1 IA (intrinsic activity)": "71% NPFF"
  },
  {
    "compound": "Cc1nc(NC(=N)N)nc2cc(Br)ccc12 [Compound 1014]",
    "rNPFF1 IA (intrinsic activity)": "Inactive"
  },
  {
    "compound": "CCc1ccc2nc(NC(=N)N)nc(C)c2c1 [Compound 1003]",
    "rNPFF1 IA (intrinsic activity)": "Inactive"
  },
  {
    "compound": "Cc1ccc2c(C)cc(NC(=N)N)nc2c1 [Compound 4006, N-(4,7-dimethyl-2-quinolinyl)guanidine]",
    "rNPFF1 IA (intrinsic activity)": "Inactive"
  },
  {
    "compound": "Cc1nc(NC(=N)N)nc2ccc(C3CCCCC3)cc12 [Compound 1029]",
    "rNPFF1 IA (intrinsic activity)": "28% NPFF"
  },
  {
    "compound": "Cc1nc(NC(=N)N)nc2cc(C(C)C)ccc12 [Compound 1021]",
    "rNPFF1 IA (intrinsic activity)": "Inactive"
  },
  {
    "compound": "Cc1cc(C)c2c(C)cc(NC(=N)N)nc2c1 [Compound 4008]",
    "rNPFF1 IA (intrinsic activity)": "Inactive"
  }
]

Could you report rNPFF1 IA (intrinsic activity) for every entry in the following list?
1. CCCCCCCCc1ccc2nc(NC(=N)N)nc(C)c2c1 [Compound 1009]
2. Cc1nc(NC(=N)N)nc2ccc(CCCC(C)O)cc12 (stereo not shown) [Compound 1034]
3. Cc1nc(NC(=N)N)nc2ccccc12 [Compound 1001, N-(4-methyl-2-quinazolinyl)guanidine]
4. CCCCCCCc1ccc2nc(NC(=N)N)nc(C)c2c1 [Compound 2006]

1. Inactive
2. 63% NPFF
3. Inactive
4. 38% NPFF

Could you report rNPFF1 IA (intrinsic activity) for every entry in the following list?
1. Cc1cc2nc(NC(=N)N)nc(C)c2cc1O [Compound 1017]
2. Cc1cc(NC(=N)N)nc2ccc(Cl)cc12 [Compound 4005]

Inactive
Inactive

Could you report rNPFF1 IA (intrinsic activity) for every entry in the following list?
1. Cc1nc(NC(=N)N)nc2ccc(OCCCCCOc3ccccc3)cc12 [Compound 1005]
2. CCCCCCc1ccc2nc(NC(=N)N)cc(C)c2c1 [Compound 5003]
3. COc1ccc2nc(NC(=N)N)nc(C)c2c1 [Compound 1011]
4. Cc1nc(NC(=N)N)nc2ccc(Cc3ccccc3)cc12 [Compound 2003]
5. Cc1cc2nc(NC(=N)N)nc(C)c2cc1C [Compound 1015]

1: Inactive; 2: 27% NPFF; 3: Inactive; 4: 56% NPFF; 5: Inactive

Could you report rNPFF1 IA (intrinsic activity) for every entry in the following list?
1. Cc1nc(NC(=N)N)nc2cc(OC(F)(F)F)ccc12 [Compound 1036]
2. CCCc1ccc2nc(NC(=N)N)nc(C)c2c1 [Compound 1008]
3. CCCCCOc1ccc2nc(NC(=N)N)nc(C)c2c1 [Compound 1031]

1. Inactive
2. Inactive
3. Inactive
